target.desc: human Izumo1_(22-254), wild type (human, UniProt Q8IYV9-1 22-254)
Sequence (Q8IYV9 22-254): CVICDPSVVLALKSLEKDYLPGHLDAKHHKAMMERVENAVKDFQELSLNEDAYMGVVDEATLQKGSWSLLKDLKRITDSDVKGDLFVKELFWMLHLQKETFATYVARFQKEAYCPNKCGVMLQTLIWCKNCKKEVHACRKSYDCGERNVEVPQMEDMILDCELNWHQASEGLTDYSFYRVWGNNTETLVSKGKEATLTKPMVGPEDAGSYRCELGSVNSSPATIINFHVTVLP
experiment: BLI
assay.readout: pKd
Reminder that pKd means the negative base-10 logarithm of the concentration expressed in mol/L.

Request: So what's the measured pKd for this one? K163A Juno_(20-228) (domain or fragment, human, UniProt A6ND01-1 20-228, looked up, biotinylated with the EZ link sulfo-NHS-LC-biotinylation kit (BLI)) GDELLNICMNAKHHKRVPSPEDKLYEECIPWKDNACCTLTTSWEAHLDVSPLYNFSLFHCGLLMPGCRKHFIQAICFYECSPNLGPWIQPVGSLGWEVAPSGQGERVVNVPLCQEDCEEWWEDCRMSYTCKSNWRGGWDWSQGANRCPKGAQCLPFSHYFPTPADLCEKTWSNSFKASPERRNSGRCLQKWFEPAQGNPNVAVARLFAS
Response: 7.01

Request: Same read-out for K163E Juno_(20-228) (domain or fragment, human, UniProt A6ND01-1 20-228, looked up, biotinylated with the EZ link sulfo-NHS-LC-biotinylation kit (in the BLI assay only)) GDELLNICMNAKHHKRVPSPEDKLYEECIPWKDNACCTLTTSWEAHLDVSPLYNFSLFHCGLLMPGCRKHFIQAICFYECSPNLGPWIQPVGSLGWEVAPSGQGERVVNVPLCQEDCEEWWEDCRMSYTCKSNWRGGWDWSQGENRCPKGAQCLPFSHYFPTPADLCEKTWSNSFKASPERRNSGRCLQKWFEPAQGNPNVAVARLFAS ?
Response: 6.87
